Test system: LOX IMVI
Experimental Protocol: NCI tumour cell line growth inhibition, 48 h
Active and inactive are the calls of the source. No stated cut-off is given here; in the data, active = GI50 up to about 1.1 µM and inactive = higher.
One label from this list, please: active, inactive

Illustrative cases are given below, each with its answer.
1) Cc1ccc2c(=O)c3cccc(CC(=O)O)c3[nH]c2c1C ... inactive
2) CCCCCc1nnc(NS(=O)(=O)c2ccc(NC(=O)OCC(C)C)cc2)s1 ... inactive
3) O=C1C=C(OCCCCl)C(=O)c2c(O)ccc(O)c21 ... active
4) N#C/C(=C\c1ccc(F)cc1)c1nc2ccccc2c(=O)[nH]1 ... inactive
5) C/C(=N/NC(=S)Nc1ccccc1Cl)c1cccc(/C(C)=N\NC(=S)Nc2ccccc2Cl)n1 ... inactive

# ---- query compound ----
# lookup: test call for Cn1c(-c2cccs2)cc(-c2cccs2)c1-c1ccsc1
inactive

###

System: 786-0
Experimental Protocol: NCI tumour cell line growth inhibition, 48 h
Active and inactive are the calls of the source. No stated cut-off is given here; in the data, active = GI50 up to about 1.1 µM and inactive = higher.
Listed molecules paired with reported GI50

Examples with their reported GI50 follow.
1. COc1cc(C)cc2c(-c3c(O)cc(O)c4c3C[C@H](C)N[C@H]4C)cc(-c3cc(-c4c(O)cc(O)c5c4C[C@H](C)N[C@H]5C)c4cc(C)cc(OC)c4c3O)c(O)c12 ... 26.9 µM (inactive)
2. COC(=O)[C@@H]1[C@H](O)CC[C@H]2[C@@]1(C)CC[C@@H](C)[C@]2(COC(C)=O)CC(=O)c1ccoc1 ... > 50 µM (inactive)
3. CCNc1ncnc2sc(SCc3ccccc3)nc12 ... > 100 µM (inactive)
4. Cc1cc(N=C2C=C(Br)C(=O)C(Br)=C2)cc(CN(CC(=O)O)CC(=O)O)c1O ... > 100 µM (inactive)
5. N#Cc1c(N)c2c(c(-c3ccccc3)c1-c1ccccc1)C(=O)N(NC(=O)c1ccccc1)C2=O ... 76.9 µM (inactive)
6. Oc1c(N2CCCCC2)cc(-c2cc(N3CCCCC3)c(O)c3ccccc23)c2ccccc12 ... 22.3 µM (inactive)

# assay system 786-0: give GI50 of C[C@]12CCC3[C@@H](CC[C@@H]4c5nonc5CC[C@]34C)C1CC[C@@H]2O (some centres undefined)
25.3 µM (inactive)

# assay system 786-0: give GI50 of CCCCCCCCCC(=O)CC(=O)c1c(O)cc(O)cc1O
28 µM (inactive)

# assay system 786-0: give GI50 of CCCCCCCCCCCCOC(=S)NC
19 µM (inactive)

###

Tested on: A549
Experimental Protocol: NCI tumour cell line growth inhibition, 48 h
Activity calls are given as the source filed them. No stated cut-off is given here; in the data, active = GI50 up to about 1.1 µM and inactive = higher.
Readout Type: GI50

Examples with their reported GI50 follow.
1) CCCN(CCC)C(=O)Cc1c2n(c3ccccc13)CCCc1ccccc1-2 ... 13.8 µM (inactive)
2) CSC1CC2C(CC1(C)SC)C2(C)C (stereo not given) ... 32.7 µM (inactive)
3) O=c1[nH]nc(Cc2c[nH]c3ccccc23)o1 ... > 100 µM (inactive)
4) CC(C)(C)OC(=O)NC(CSCc1ccc(C(=O)c2ccccc2)cc1)C(=O)N1CCN(CCCCN2c3ccccc3Sc3cc(N=[N+]=[N-])ccc32)CC1 (stereo not given) ... > 100 µM (inactive)

Annotate the molecule C[C@@H]1C[C@@H]2C(=O)N(c3ccccc3)C(=O)[C@@H]2c2[nH]c3ccc(Br)cc3c21 with its measured GI50.
33.6 µM (inactive)
